# Tested on: Oseltamivir-resistant A/Weiss/1943 (NA H275Y)
# Type: cell-based, Influenza A virus
Attribute: EC50

Consider the worked cases shown below.
In [3]: df
Out[3]:
                                   molecule  endpoint_value
0  COC[C@@]1(C)COC[C@@H](COc2ccc(-c3cc(C(N)=O)c(O)nc3C(F)(F)F)cc2)O1 [VNT-101]          118 nM
1  O=C1c2c(O)c(=O)ccn2N([C@@H]2c3ccccc3SCc3c2ccc(F)c3F)[C@@H]2COCCN12 [Baloxavir, baloxavir, reference compound]         0.42 nM

From here, focus on the item given below.
Using the record for CCOC(=O)C1=C[C@@H](OC(CC)CC)[C@H](NC(C)=O)[C@@H](N)C1 [Oseltamivir, oseltamivir, reference compound] , report its EC50.
> 78400 nM
